Test system: TK-10 renal
assay-name: NCI-60 one-dose screen, 48 h
condition-description: 10 µM unless noted
This is part of a sample that, as a whole, favours compounds with a hit. Of some 83,000 tested, about 20% had one in any assay. Activity calls are given as the source filed them. How the source made its calls: active means growth percent below 10; inactive means the rest.
Outcome codes: active, inactive

{"compound": "NC1CN2CCC1CC2 (stereo not given)", "classification": "inactive"}
{"compound": "N[C@@H](CCC(=O)CCl)C(=O)O", "classification": "inactive"}
{"compound": "Cc1ccc(S(=O)(=O)n2cc([C@@]3(O)C[C@H](CSC#N)OC3=O)c3ccccc32)cc1", "classification": "inactive"}
{"compound": "Oc1ccccc1C=NCCN=Cc1ccccc1O.[Fe]", "classification": "inactive"}
{"compound": "CCCC[C@H]1C(=O)O[C@H](C)[C@H](NC(=O)c2cccc(NC=O)c2O)C(=O)O[C@@H](C)[C@@H]1OC(=O)CC(C)C", "classification": "inactive"}
{"compound": "O=C(O)c1ccccc1N(CCO)CCCl", "classification": "inactive"}
{"compound": "CO[C@H]1[C@H](O[C@@H]2C[C@@H]3C/C=C/C(=O)O[C@@H](CO)C[C@H](O)[C@@H]4C[C@H](C)[C@H](C/C=C\\C=C\\[C@H](C)C[C@H](C2)O3)O4)O[C@@H](C)[C@H](O)[C@H]1O", "classification": "inactive"}
{"compound": "O=[N+]([O-])c1cc(Cl)c(Cl)cc1Cl", "classification": "inactive"}
{"compound": "CC/C(=C(\\c1ccc(OCCN2CCOCC2)cc1)c1ccc(OC(=O)Cc2ccccc2)cc1)c1ccc(Cl)cc1", "classification": "inactive"}
{"compound": "C/C(=N/OC(=O)N(C)C)c1ccc(Cl)c(Cl)c1", "classification": "inactive"}
{"compound": "CC1=CC(=Nc2ccc(N(CCCl)CCCl)cc2)C=C(C)C1=O", "classification": "active"}
{"compound": "Oc1cc(N2CC2)c(O)cc1N1CC1", "classification": "active"}
{"compound": "COc1ccc(C(C#N)C(C)=O)cc1 (stereo not given)", "classification": "inactive"}
{"compound": "CCOP(=O)(NC)OCC", "classification": "inactive"}
{"compound": "Nc1ccc(S(=O)(=O)F)cc1", "classification": "inactive"}
{"compound": "CC1=C2[C@H]3OC(=O)[C@@H](C)[C@@H]3CC[C@@]2(C)C=CC1=O", "classification": "inactive"}
{"compound": "C[C@]12CC[C@H]3[C@@H](C[C@@H]4SC(Nc5cccc(F)c5)=N[C@@]45CC(=O)CC[C@]35C)[C@@H]1CCC2=O", "classification": "inactive"}
{"compound": "C[N+]12CCC34C5=CC(=O)C(=O)C=C5[N+]5(C)C(=O)CC6OCC=C(C1)C(CC32)C6C45 (stereo not given)", "classification": "inactive"}
{"compound": "CC[C@H](C)[C@H](NC(=O)c1ncccn1)C(=O)N(C)[C@H](C[C@@H](OC(C)=O)c1nc(C(=O)N[C@@H](Cc2ccccc2)C[C@H](C)C(=O)OC)cs1)C(C)C", "classification": "inactive"}
{"compound": "CC[C@H](C)[C@H](NC(=O)[C@H]1CCCCN1C)C(=O)N(C)[C@H](C(=O)NC12CC(C(=O)N[C@@H](Cc3ccccc3)C[C@H](C)C(=O)OC)(C1)C2)C(C)C", "classification": "inactive"}

###

Test system: NCI-H522 lung
assay-name: NCI-60 one-dose screen, 48 h
condition-description: 10 µM unless noted
The panel holds about 83,000 compounds, 20% with a hit somewhere; the sample as a whole holds those more often. Calls of active or inactive are those of the source. Rule for the calls: active = growth percent below 10; inactive = the rest.
Outcome codes: true (active), false (inactive)

{"compound": "O=S(OO)c1cc(Cl)c(O)c(Cl)c1 (stereo not drawn)", "classification": "false"}
{"compound": "Oc1ccccc1C=NCCN=Cc1ccccc1O", "classification": "false"}
{"compound": "Nc1ccc(S(=O)(=O)F)cc1", "classification": "false"}
{"compound": "O=[N+]([O-])c1ccc(OCc2ccc(S(=O)(=O)F)c(Cl)c2)c(Cl)c1", "classification": "false"}
{"compound": "CC1=C([Te]c2ccccc2)C(=O)c2ccccc2C1=O", "classification": "true"}
{"compound": "N#CCCc1ccccc1", "classification": "false"}
{"compound": "N#CCN(CC#N)[N+](=O)[O-]", "classification": "false"}
{"compound": "CN1CCN(c2ccc(Cl)cc2)CC1", "classification": "false"}
{"compound": "c1ccc(CCN2CCCCC2)nc1", "classification": "false"}
{"compound": "CO/N=C1\\CC[C@]2(C)[C@H]3CC[C@]4(C)C(=O)CC[C@H]4[C@@H]3C[C@@H]3SC(N)=N[C@@]32C1", "classification": "false"}
{"compound": "Cc1c2ccncc2c(C)c2c1[nH]c1ccccc12", "classification": "true"}
{"compound": "CCCCS(=O)(=O)Cl", "classification": "false"}
{"compound": "O=C1CN2CCC1CC2", "classification": "false"}
{"compound": "CC[C@H](C)[C@H](NC(=O)c1cnccn1)C(=O)N(C)[C@H](C[C@@H](OC(C)=O)c1nc(C(=O)N[C@@H](Cc2ccccc2)C[C@H](C)C(=O)OC)cs1)C(C)C", "classification": "true"}
{"compound": "N#CCc1ccc(CC#N)cc1", "classification": "false"}
{"compound": "CSc1cc(/C=C(\\C)[C@@H]2C[C@@H]3O[C@]3(C)CCC[C@H](C)[C@H](O)[C@@H](C)C(=O)C(C)(C)[C@@H](O)CC(=O)O2)n(CCNC(=O)OC(C)(C)C)n1", "classification": "false"}
{"compound": "Cc1cc2c(cc1-c1ccnc(/C=C/C(=O)O)c1)C(C)(C)CCC2(C)C", "classification": "false"}
{"compound": "COc1ccc2c(c1)C1(C)CCN(C)CC(C1)C2O (stereo not drawn)", "classification": "false"}
{"compound": "CCOP(=O)(OCC)C(=O)N(CC)CC", "classification": "false"}
{"compound": "C[C@]12CC[C@H](O)C[C@@H]1CC[C@@H]1[C@@H]2CC[C@]2(C)OC(=O)CC[C@@H]12", "classification": "false"}
{"compound": "COc1cc2c(cc1OC)-c1c3c(cc4c1[C@@H](C2)N(C)CC4)OCO3", "classification": "true"}
{"compound": "O=C1NC(=O)C(=C/C=C/c2ccccc2)C(=O)N1", "classification": "true"}
{"compound": "C[C@]12CC[C@H]3[C@@H](CC=C4c5nc(N)sc5CC[C@@]43C)[C@@H]1CC[C@@H]2O", "classification": "false"}

###

Below, each entry is listed with its recorded growth.
Test system: HT29 colon
assay-name: NCI-60 one-dose screen, 48 h (100 = growth as untreated, 0 = no growth, -100 = all killed)
condition-description: 10 µM unless noted
About 83,000 compounds went through this panel and 20% of them were active in at least one assay; those are over-represented in the sample as a whole.

{"molecule": "Oc1cc(Cl)ccc1Oc1ccc(Cl)cc1Cl", "readout-units": "%", "growth": 87.4}
{"molecule": "CC1=CC(=O)CCC12CCOC2=O (stereo unspecified)", "readout-units": "%", "growth": 101}
{"molecule": "Oc1ccccc1C=NCCN=Cc1ccccc1O.[Fe]", "readout-units": "%", "growth": 72.4}
{"molecule": "c1ccc2c(c1)sc1ccccc12", "readout-units": "%", "growth": 99.8}
{"molecule": "CC1OC(=O)C(C(C)C)NC(=O)C(C(C)C)OC(=O)C(C(C)C)NC(=O)C(C)OC(=O)C(C(C)C)NC(=O)C(C(C)C)OC(=O)C(C(C)C)NC(=O)C(C)OC(=O)C(C(C)C)NC(=O)C(C(C)C)OC(=O)C(C(C)C)NC1=O (stereo unspecified)", "readout-units": "%", "growth": -32.3}
{"molecule": "COc1cc(-c2ccc(N)c(OC)c2)ccc1N", "readout-units": "%", "growth": 97.5}
{"molecule": "CNC(=O)Oc1ccc(Cl)cc1SSc1cc(Cl)ccc1OC(=O)NC", "readout-units": "%", "growth": 106}
{"molecule": "ClC1OC(Cl)(Cl)C(Cl)(Cl)OC1(Cl)Cl (stereo unspecified)", "readout-units": "%", "growth": 103}
{"molecule": "CCCN1C(=O)NC(=O)C(CC)(N2C(=O)c3c(F)c(F)c(F)c(F)c3C2=O)C1=O (stereo unspecified)", "readout-units": "%", "growth": -66.6}
{"molecule": "O=CC1(c2ccccc2)CCN(Cc2ccccc2)CC1", "readout-units": "%", "growth": 107}
{"molecule": "CCCCS(=O)(=O)Cl", "readout-units": "%", "growth": 113}

###

Tested on: SK-MEL-2 melanoma
assay-name: NCI-60 one-dose screen, 48 h
condition-description: 10 µM unless noted
About 83,000 compounds went through this panel and 20% of them were active in at least one assay; those are over-represented in the sample as a whole. The source made the active and inactive calls. How the source made its calls: active means growth percent below 10; inactive means the rest.
Outcome codes: TRUE (active), FALSE (inactive)

{"compound": "COc1ccc(C(C#N)C(C)=O)cc1 (centres undefined)", "classification": "FALSE"}
{"compound": "Nc1nc(=S)nc(N)[nH]1", "classification": "FALSE"}
{"compound": "O=[N+]([O-])c1c(Cl)cc(Cl)c([N+](=O)[O-])c1Cl", "classification": "FALSE"}
{"compound": "COc1ccc(N)cc1OC", "classification": "FALSE"}
{"compound": "N#CCCc1ccccc1", "classification": "FALSE"}
{"compound": "COc1ccc(N(CC(=O)NCCC[Te]c2ccccc2)C(=O)c2ccccc2)cc1", "classification": "FALSE"}
{"compound": "C=CCOC(=O)C(Br)CC (centres undefined)", "classification": "FALSE"}
{"compound": "COC1C(O)CC(OC2CC(Oc3cc4cc5c(c(O)c4c(O)c3C)C(=O)[C@@H](OC3CC(OC4CC(OC6CC(C)(O)C(OC(C)=O)C(C)O6)C(O)C(C)O4)C(O)C(C)O3)[C@H]([C@H](OC)C(=O)[C@@H](O)[C@@H](C)O)C5)OC(C)C2OC(C)=O)OC1C (some centres undefined)", "classification": "TRUE"}
{"compound": "Oc1ccc(O)c(Cl)c1", "classification": "FALSE"}
{"compound": "C[C@]12CCc3sc(Nc4ccc(F)cc4F)nc3C1=CC[C@@H]1[C@@H]2CC[C@]2(C)C(=O)CC[C@@H]12", "classification": "FALSE"}
{"compound": "Cc1c2ccncc2c(C)c2c1[nH]c1ccccc12", "classification": "TRUE"}
{"compound": "C/C(=C\\c1ccn(-c2ccc(N)cc2F)n1)[C@@H]1C[C@@H]2O[C@]2(C)CCC[C@H](C)[C@H](O)[C@@H](C)C(=O)C(C)(C)[C@@H](O)CC(=O)O1", "classification": "FALSE"}
{"compound": "CC(C)c1cccc(C(C)C)c1O", "classification": "FALSE"}
{"compound": "COc1ccn(C)c(=O)c1C#N", "classification": "FALSE"}
{"compound": "CNC(=O)CCl", "classification": "FALSE"}
{"compound": "CC1(C)C=Cc2c(ccc3c2[N+]([O-])=C2C3=C[C@@]34NC(=O)[C@]5(CCCN5C3=O)C[C@@H]4C2(C)C)O1", "classification": "FALSE"}
{"compound": "COCC1OC2OC3C(COC)OC(OC4C(COC)OC(OC5C(COC)OC(OC6C(COC)OC(OC7C(COC)OC(OC8C(COC)OC(OC1C(O)C2O)C(O)C8O)C(O)C7O)C(O)C6O)C(O)C5O)C(O)C4O)C(O)C3O (centres undefined) (tested in a mixture with another compound)", "classification": "FALSE"}
{"compound": "CC[C@H](C)[C@H](NC(=O)C12CC(NC)(C1)C2)C(=O)N(C)[C@H](C[C@@H](OC(C)=O)c1nc(C(=O)N[C@@H](Cc2ccccc2)C[C@H](C)C(=O)OC)cs1)C(C)C", "classification": "FALSE"}
{"compound": "Cc1cc[c-]cc1.Fc1c[c-]c(-c2ccccn2)c(F)c1.N#CCC[PH+](CCC#N)c1ccccc1.[Pt+2]", "classification": "FALSE"}
